Tested on: Magnaporthe grisea f. sp. oryzae
Experiment: microbe, parasite or virus in culture
Type: cell-based
Conditions: Pyricularia oryzae, read-out: MIC (Minimum Inhibitory Concentration) PYRIOR, Table II; total inhibition of mycelial growth, V8 juice nutrient solution, 6-12 days at 18-25°C, visual inspection
readout_name: MIC

# substance_smiles, MIC
rows = [
    ("Fc1cccc(Cl)c1-c1c(Cl)nc2ncnn2c1C1CCCCC1", "< 0.05 µg/mL"),
    ("CCCCc1c(-c2ccccc2Cl)c(Cl)nc2ncnn12", "< 0.05 µg/mL"),
    ("CCCc1c(-c2c(F)cc(OC)cc2F)c(Cl)nc2ncnn12", "< 0.05 µg/mL"),
]

Hello, I would appreciate it if you could give MIC for each entry below.
1. COc1cc(F)c(-c2c(OC)nc3ncnn3c2[C@H]2CC[C@@H](F)CC2)c(F)c1
2. COc1cc(F)c(-c2c(Cl)nc3ncnn3c2[C@H]2CC[C@@H](F)CC2)c(F)c1

Ans:
1. < 0.05 µg/mL
2. < 0.05 µg/mL
